- Protocol details: chemical genetic growth profiling, strain panel (AID 1159580);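 further: tested at 20 µM; growth read once vehicle control cultures reached saturation at 30 °C; 1 = growth at the plate median or of vehicle wells; lower values mean less growth of the strain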
- Experimental conditions: S. cerevisiae deletion strains, growth OD, locus YKR091W, strain srl3, stronger effect = lower value
About 2,000 (36%) of roughly 5,500 compounds were called active. About 18% were inconclusive and are not listed. Some of the results follow.
Reported normalized growth values are given for each entry in this list.
Number only, please.

CC(=O)O[C@@H]1CC2C(C)(C)[C@H](O)C=C[C@]2(C)C2CC[C@]3(C)C(=CC(=O)O[C@H]3c3ccoc3)[C@@]21C (some centres undefined)
0.99
COC1CC2CCC(C)C(O)(O2)C(=O)C(=O)N2CCCCC2C(=O)OC(C(C)CC2CCC(O)C(OC)C2)CC(=O)C(C)/C=C(\C)C(O)C(OC)C(=O)C(C)CC(C)/C=C/C=C/C=C/1C (centres undefined)
0.063
Cc1cc(=O)[nH]c(=S)[nH]1
0.967
CCN1CCN(C(=O)NC(C(=O)N[C@@H]2C(=O)N3[C@@H]2SC(C)(C)[C@@H]3C(=O)O)c2ccccc2)C(=O)C1=O (some centres undefined)
1
CCCc1cc(=O)[nH]c(=S)[nH]1
1.01
CC(N=C(NC#N)Nc1ccncc1)C(C)(C)C (centres undefined)
0.993

In: Entry under review: COc1ccccc1OCC(O)CO (centres undefined) . Reported normalized growth?
Out: 1.02

In: Entry under review: CC(=O)O[C@@H]1C=C[C@@]2(C)C(C[C@@H](OC(C)=O)[C@@]3(C)C4=CC(=O)O[C@@H](c5ccoc5)[C@]4(C)CCC23)C1(C)C (some centres undefined) . Reported normalized growth?
Out: 0.982

In: Entry under review: "CC(=O)Nc1ccc(S(=O)(=O)Nc2onc(C)c2C)cc1" . Reported normalized growth?
Out: 0.977

----------
Reported normalized growth values are given for each entry in this list.
- Protocol details: chemical genetic growth profiling, strain panel (AID 1159580);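 further: tested at 20 µM; growth read once vehicle control cultures reached saturation at 30 °C; 1 = growth at the plate median or of vehicle wells; lower values mean less growth of the strain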
- Experimental conditions: S. cerevisiae deletion strains, growth OD, locus YGL086W, strain mad1, stronger effect = lower value
In all, about 5,500 compounds went through this assay and about 2,000 (36%) were called active. About 18% were inconclusive and are not listed. This is one part of the list.
Number only, please.

Solved entries:
CNNC
1.01
CC(C)CCCC(C)C1CCC2C3CC(=O)[C@H]4C[C@@H](O)CC[C@]4(C)C3CC[C@]12C (stereo partly specified)
1.03
CC(C)=CCc1c2c(c3occ(-c4ccc(O)cc4)c(=O)c3c1O)C=CC(C)(C)O2
0.861
Cc1cc(=O)[nH]c(=S)[nH]1
1
NCC(=O)c1ccccc1
1

In: Entry under review: "OC[C@H]1O[C@@H](O[C@@H]2[C@@H](CO)O[C@](O)(CO)[C@H]2O)[C@H](O)[C@@H](O)[C@H]1O" . Reported normalized growth?
Out: 1

In: Entry under review: "COC(=O)c1c(C)c2c(c(C)c1OC)OC(=O)c1c(C)c(Cl)c(OC)c(Cl)c1O2" . Reported normalized growth?
Out: 1.03

In: Entry under review: "COC(=O)c1c(C)c2c(c(C)c1O)OC(=O)c1c(C)c(Cl)c(O)c(Cl)c1O2" . Reported normalized growth?
Out: 0.962

----------
- Protocol details: chemical genetic growth profiling, strain panel (AID 1159580);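 further: tested at 20 µM; growth read once vehicle control cultures reached saturation at 30 °C; 1 = growth at the plate median or of vehicle wells; lower values mean less growth of the strain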
- Experimental conditions: S. cerevisiae deletion strains, growth OD, locus YML124C, strain tub3, stronger effect = lower value
Hit rate of the full screen: of about 5,500 compounds, about 2,000 (36%) were called active. Roughly 18% stayed inconclusive and do not appear here. The list shows a part of the results.
Reported metric: normalized growth
Number only, please.

In: Entry under review: CC(C)CCCC(C)C1CCC2C3C[C@@H](O)[C@@]4(O)C[C@@H](O)CC[C@]4(C)C3CC[C@]12C (some centres not stated) . Reported normalized growth?
Out: 1.02

In: Entry under review: "COc1cc(C/C=C/c2ccccc2)c(OC)cc1O" . Reported normalized growth?
Out: 0.941

In: Entry under review: "CC(=O)Oc1c(Cl)c(C)c2c(c1Cl)OC(=O)c1c(C)c(Cl)c(OC(C)=O)c(Cl)c1O2" . Reported normalized growth?
Out: 1.02

In: Entry under review: "N=C(N)N" . Reported normalized growth?
Out: 0.991

In: Entry under review: CC(C)CCCC(C)[C@H]1CCC2C3CC=C4C[C@@H](O)CC[C@]4(C)C3CC[C@@]21C (some centres not stated) . Reported normalized growth?
Out: 0.999

In: Entry under review: "CNNC" . Reported normalized growth?
Out: 1.01

In: Entry under review: "CC(=O)N[C@@H](Cc1c[nH]c2ccccc12)C(N)=O" . Reported normalized growth?
Out: 1.01

In: Entry under review: "CCCOc1ccc2nc(NC(=O)OC)[nH]c2c1" . Reported normalized growth?
Out: 0.88

In: Entry under review: CC(=O)O[C@@H]1CC2C(C)(C)C(=O)C=C[C@]2(C)C2CC[C@]3(C)C(=CC(=O)O[C@H]3c3ccoc3)[C@@]21C (some centres not stated) . Reported normalized growth?
Out: 0.989

In: Entry under review: "COc1ccc2cc(CCC(C)=O)ccc2c1" . Reported normalized growth?
Out: 0.929
